Ref: patent US10947242B2

Below is a list of entries, each paired with its recorded IC50 value.
Target: Human recombinant PDE10A (hPDE10A) (Homo sapiens, UniProt Q9Y233)
Construct: His tag (inferred from metal chelate purification); made in house; host or cells: Sf9 insect cells (baculovirus)
Sequence (Q9Y233 267-1055): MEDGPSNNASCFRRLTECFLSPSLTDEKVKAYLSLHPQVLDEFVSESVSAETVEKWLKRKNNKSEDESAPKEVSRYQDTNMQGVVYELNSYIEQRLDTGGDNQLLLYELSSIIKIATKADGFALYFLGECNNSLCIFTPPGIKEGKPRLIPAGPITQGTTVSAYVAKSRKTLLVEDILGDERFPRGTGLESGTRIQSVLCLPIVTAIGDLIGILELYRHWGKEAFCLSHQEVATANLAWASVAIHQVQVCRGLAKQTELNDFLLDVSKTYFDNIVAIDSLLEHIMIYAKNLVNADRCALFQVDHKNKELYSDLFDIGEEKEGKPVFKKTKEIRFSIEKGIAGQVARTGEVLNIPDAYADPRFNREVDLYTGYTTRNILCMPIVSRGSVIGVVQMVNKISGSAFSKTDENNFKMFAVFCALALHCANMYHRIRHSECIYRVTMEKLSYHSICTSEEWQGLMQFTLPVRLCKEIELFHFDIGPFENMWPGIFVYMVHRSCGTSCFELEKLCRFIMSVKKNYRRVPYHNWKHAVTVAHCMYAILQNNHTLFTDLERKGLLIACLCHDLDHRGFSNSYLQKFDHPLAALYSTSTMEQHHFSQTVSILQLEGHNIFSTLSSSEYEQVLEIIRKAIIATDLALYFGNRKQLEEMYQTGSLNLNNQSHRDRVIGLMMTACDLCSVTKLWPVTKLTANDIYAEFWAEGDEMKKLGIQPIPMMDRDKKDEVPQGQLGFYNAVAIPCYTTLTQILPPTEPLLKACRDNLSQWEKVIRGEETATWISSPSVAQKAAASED
Assay: In vitro assay PDE10A, human clone (SPA, 3H-cAMP hydrolysis)
Type: biochemical
Conditions: human clone by default (no (r) mark); read-out: hPDE10A2 or rPDE10A2 pIC50 (converted)

{"compound": "Cc1cc([C@H]2CN(C(=O)c3cc(C)c(F)c(C)c3)CC[C@@H]2C)n2ncnc2n1 [Compound 217]", "IC50": "4790 nM"}
{"compound": "O=C(c1ccc2nccnc2c1)N1[C@H]2CC[C@H](c3cc(C(F)F)nc4ncnn34)[C@@H]1CC2 [Compound 381]", "IC50": "1320 nM"}
{"compound": "Cc1cc(C(=O)N2[C@H]3CC[C@H](c4cc(C(F)F)nc5ncnn45)[C@@H]2CC3)cc(C)c1F [Compound 346]", "IC50": "724 nM"}
{"compound": "Cc1nc2ccc(C(=O)N3[C@H]4CC[C@H](c5cc(C(F)F)nc6ncnn56)[C@@H]3CC4)cc2s1 [Compound 368]", "IC50": "251 nM"}
{"compound": "O=C(c1cnc2ccccc2c1)N1[C@H]2CC[C@H](c3cc(C(F)F)nc4ncnn34)[C@@H]1CC2 [Compound 313]", "IC50": "1230 nM"}
{"compound": "CCn1ccc2cc(C(=O)N3[C@H]4CC[C@H](c5cc(C(F)F)nc6ncnn56)[C@@H]3CC4)ccc21 [Compound 363]", "IC50": "178 nM"}

---

Target: Human recombinant PDE2A (hPDE2A) (Homo sapiens)
Construct: His tag (inferred from metal chelate purification); made in house; host or cells: Sf9 insect cells (baculovirus)
Sequence (O00408 whole entry): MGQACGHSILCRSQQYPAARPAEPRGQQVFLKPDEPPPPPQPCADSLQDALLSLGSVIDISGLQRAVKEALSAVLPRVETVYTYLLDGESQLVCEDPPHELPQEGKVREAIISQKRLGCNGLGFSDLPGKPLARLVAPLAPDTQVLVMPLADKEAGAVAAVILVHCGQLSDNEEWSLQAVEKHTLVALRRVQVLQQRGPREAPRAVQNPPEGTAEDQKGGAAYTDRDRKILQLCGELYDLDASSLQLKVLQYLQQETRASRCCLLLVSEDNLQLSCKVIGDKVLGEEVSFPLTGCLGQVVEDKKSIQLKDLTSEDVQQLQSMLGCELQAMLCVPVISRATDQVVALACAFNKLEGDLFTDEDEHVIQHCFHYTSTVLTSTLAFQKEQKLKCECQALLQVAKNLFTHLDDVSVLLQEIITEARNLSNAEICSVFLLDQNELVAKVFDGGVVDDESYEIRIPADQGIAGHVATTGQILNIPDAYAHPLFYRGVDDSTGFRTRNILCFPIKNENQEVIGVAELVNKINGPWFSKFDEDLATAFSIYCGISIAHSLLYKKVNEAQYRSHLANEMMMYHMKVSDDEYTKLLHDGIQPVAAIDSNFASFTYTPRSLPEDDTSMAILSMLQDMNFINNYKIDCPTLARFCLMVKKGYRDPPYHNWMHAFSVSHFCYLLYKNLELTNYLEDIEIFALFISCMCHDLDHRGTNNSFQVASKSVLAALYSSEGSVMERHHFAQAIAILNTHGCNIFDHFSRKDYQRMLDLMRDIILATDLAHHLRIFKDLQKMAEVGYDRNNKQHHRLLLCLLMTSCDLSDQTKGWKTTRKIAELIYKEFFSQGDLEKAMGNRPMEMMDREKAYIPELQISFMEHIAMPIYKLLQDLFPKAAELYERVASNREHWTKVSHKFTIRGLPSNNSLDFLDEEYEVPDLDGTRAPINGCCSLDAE
Test: In vitro assay PDE2A (SPA, 3H-cGMP hydrolysis)
Type: biochemical
Settings: read-out: hPDE2A Emax

{"compound": "COc1cccc2c1OCC(C(=O)N1CC[C@@H](C)[C@H](c3cc(C(F)F)nc4ncnn34)C1)=C2", "Emax / %": 102}
{"compound": "O=C(c1ccc2ccccc2c1)N1[C@H]2CC[C@H](c3cc(C(F)F)nc4ncnn34)[C@@H]1CC2", "Emax / %": 100}
{"compound": "C[C@@H]1CCN(C(=O)c2cccc(OC(F)(F)F)c2F)C[C@H]1c1cc(C(F)F)nc2ncnn12", "Emax / %": 97}
{"compound": "C[C@]1(c2cc(C(F)F)nc3ncnn23)CCCN(C(=O)c2ccc3c(ccn3CCF)c2)C1 (single isomer, unassigned)", "Emax / %": 91}
{"compound": "Cc1nc(C(F)(F)F)ccc1C(=O)N1CC[C@@H](C)[C@H](c2cc(C(F)F)nc3ncnn23)C1", "Emax / %": 99}
{"compound": "Cc1nocc1C(=O)N1CC[C@@H](C)[C@H](c2cc(C(F)F)nc3ncnn23)C1", "Emax / %": 100}
{"compound": "C[C@@H]1CCN(C(=O)c2ccc(C(F)(F)F)nc2Cl)C[C@H]1c1cc(C(F)F)nc2ncnn12", "Emax / %": 97}
{"compound": "O=C(c1ccc2occc2c1)N1CCC[C@](F)(c2cc(C(F)F)nc3ncnn23)C1 (single isomer, unassigned)", "Emax / %": 93}
{"compound": "COc1cc(C(=O)N2CC[C@@H](C)[C@H](c3cc(C(F)F)nc4ncnn34)C2)ccc1C1CC1", "Emax / %": 101}
{"compound": "Cc1cc(C(=O)N2[C@H]3CC[C@H](c4cc(C(F)F)nc5ncnn45)[C@@H]2CC3)c(C)s1", "Emax / %": 102}
{"compound": "C[C@@H]1CCN(C(=O)c2cccc3c2OC(F)(F)O3)C[C@H]1c1cc(C(F)F)nc2ncnn12", "Emax / %": 100}
{"compound": "C[C@@H]1CCN(C(=O)c2cc(C#N)ccn2)C[C@H]1c1cc(C(F)F)nc2ncnn12", "Emax / %": 98}
{"compound": "C[C@@H]1CCN(C(=O)c2noc3ccccc23)C[C@H]1c1cc(C(F)F)nc2ncnn12", "Emax / %": 99}
{"compound": "Cc1cc(C(=O)N2[C@H]3CC[C@@H]2[C@H](c2cc(C(F)F)nc4ncnn24)CC3)cc(C(F)(F)F)n1", "Emax / %": 65}
{"compound": "COc1c(C)cc(C(=O)N2CC[C@@H](C)[C@H](c3cc(C(F)F)nc4ncnn34)C2)cc1C", "Emax / %": 101}
{"compound": "Cc1cc(C(=O)N2CC[C@@H](C)[C@H](c3cc(C(F)F)nc4ncnn34)C2)cc(C)c1F", "Emax / %": 100}
{"compound": "Cc1nc(C(F)(F)F)cc(C(=O)N2CC[C@@H](C)[C@H](c3cc(C(F)F)nc4ncnn34)C2)c1F", "Emax / %": 99}
{"compound": "CN(C)c1ccc(C(=O)N2[C@H]3CC[C@H](c4cc(C(F)F)nc5ncnn45)[C@@H]2CC3)cc1", "Emax / %": 99}
{"compound": "CC(C)(C)c1ccc(C(=O)N2[C@H]3CC[C@H](c4cc(C(F)F)nc5ncnn45)[C@@H]2CC3)o1", "Emax / %": 99}
{"compound": "Cc1nc2ccncc2cc1C(=O)N1CC[C@@H](C)[C@H](c2cc(C(F)F)nc3ncnn23)C1", "Emax / %": 100}
